- system under test: UniProt:P97612
- Sequence (P97612 whole entry): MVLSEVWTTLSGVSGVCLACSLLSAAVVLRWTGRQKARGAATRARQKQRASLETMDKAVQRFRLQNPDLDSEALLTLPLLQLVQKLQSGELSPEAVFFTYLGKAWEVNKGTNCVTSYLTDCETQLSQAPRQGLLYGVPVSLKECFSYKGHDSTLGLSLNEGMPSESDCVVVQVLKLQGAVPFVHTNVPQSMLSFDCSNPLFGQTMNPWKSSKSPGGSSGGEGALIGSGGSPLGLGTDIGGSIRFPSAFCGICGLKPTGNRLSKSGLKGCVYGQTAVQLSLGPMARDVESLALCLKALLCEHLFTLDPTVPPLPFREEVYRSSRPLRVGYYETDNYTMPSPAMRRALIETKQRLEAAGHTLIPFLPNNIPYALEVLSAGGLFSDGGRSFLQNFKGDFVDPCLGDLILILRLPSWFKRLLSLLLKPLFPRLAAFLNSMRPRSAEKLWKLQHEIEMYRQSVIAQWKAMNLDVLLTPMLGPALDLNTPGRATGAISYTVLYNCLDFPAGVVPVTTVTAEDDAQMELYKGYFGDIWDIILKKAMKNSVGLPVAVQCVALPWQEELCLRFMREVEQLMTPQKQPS
pIC50: −log10 of the molar value.
Quick rule: pIC50 of at least 6 means Condition met, below that means Condition not met.

These solved cases illustrate the format of a correct answer.
Does the reported pIC50 for CCCCCCCCCC(=O)C(F)(F)F fall at or above the 6 mark?
Condition met

Same question for CCCCCCCCCCCC(=O)C(F)(F)F please.
Condition met

Consider next the compound CCCCOC[C@H]1CC=CC[C@H]1COCCCC(=O)C(F)(F)F in the same way.
Condition not met

Query CCCCCCc1ccccc1CCCCCC(=O)C(F)(F)F next
Condition not met

New cases:
Could you please find out whether CCCCCCCC/C=C\CCCCCCCC(=O)C(F)(F)F has pIC50 that meets 6 or exceeds it?
Condition met
